The measured values listed here are drawn from PubChem BioAssay.

# TEST_SUMMARY: E. coli acrAB mutant growth effects, primary screen, E. coli filamentation inducers, strain DRC39, OD650, 48 h (AID 1179);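 further: screen aims at cell division blockers that make cells filament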
# MEASUREMENT_PARAMETERS: E. coli DRC39 delta-acrAB growth, higher = more signal, called active from +8 up or from −8 down
Activity calls are given as the source filed them.
Could you please report measured z-score for the items listed next?

{"COMPOUND": "O=C1[C@H]2[C@H]3[C@H](O)[C@H](O)CC(=NO[C@@H]4O[C@H](CO)[C@@H](O)[C@H](O)[C@H]4O)[C@H]3CC[C@H]2C(=O)N1C[C@@H]1CCCO1", "z-score": "0.595 (inactive)"}
{"COMPOUND": "CC(=O)OC[C@H]1O[C@H](C#CCCc2ccccc2)C=C[C@@H]1OC(C)=O", "z-score": "-0.406 (inactive)"}
{"COMPOUND": "O=C1[C@H]2[C@H]3[C@H](O)[C@H](O)CC(=NO[C@@H]4O[C@H](CO)[C@@H](O)[C@H](O)[C@H]4O)[C@@H]3CC[C@H]2C(=O)N1C1CCCCC1", "z-score": "0.27 (inactive)"}
{"COMPOUND": "C[C@H]1C=CCC(=O)OC[C@H](C)C(=O)N2CCC[C@H]2C(=O)OC1", "z-score": "0.205 (inactive)"}
{"COMPOUND": "O=C1CCCC=C1C(O)C1CCCCC1 (stereo unspecified)", "z-score": "0.456 (inactive)"}
{"COMPOUND": "O=C1[C@H]2[C@H]3[C@H](O)[C@H](O)CC(=NOC[C@@H](O)COCc4ccco4)[C@@H]3CC[C@H]2C(=O)N1C1CCCCC1", "z-score": "0.132 (inactive)"}
{"COMPOUND": "CO[C@@H]1COC(=O)[C@@H]2CCCN2C(=O)[C@@H](C)COC(=O)CCC[C@H]1C", "z-score": "-0.0609 (inactive)"}
{"COMPOUND": "O=C1C=C[C@@H](O)[C@@H]2[C@@H]3C(=O)N(Cc4ccccc4)C(=O)[C@@H]3CC[C@@H]12", "z-score": "0.116 (inactive)"}
{"COMPOUND": "CCOC(=O)[C@H](Cc1ccccc1)NC(=O)CCC1CC(OC(=O)NCc2ccc3c(c2)OCO3)CC2(CCCC(COC(=O)NCCCN3CCCC3=O)O2)O1 (stereo partly specified)", "z-score": "0.186 (inactive)"}
{"COMPOUND": "O=C1[C@H]2[C@H]3[C@H](O)[C@H](O)CC(=NOCc4ccccc4)[C@@H]3CC[C@H]2C(=O)N1c1cccc(Oc2ccccc2)c1", "z-score": "1.4 (inactive)"}

Hi, could you look up z-score for each item in my list?
1. C=CC[C@@H]1C=C[C@H](ON=C2C[C@@H](O)[C@@H](O)[C@@H]3[C@@H]4C(=O)N(CC)C(=O)[C@@H]4CC[C@@H]23)[C@@H](CO)O1
2. COC(=O)CC=C[C@@H](C)[C@@H](C=NOC[C@@H](C)[C@H](OCc1ccccc1)C(C)C)NS(=O)(=O)c1ccc(C)cc1
3. CC(=O)OC[C@H]1O[C@H](CC=NOC[C@@H](O)[C@H]2O[C@@H]3OC(C)(C)O[C@@H]3[C@H]2O)C=C[C@@H]1OC(C)=O
4. COC(=O)[C@H](C)NC(=O)CCC1CC(OC(=O)NCc2cccc3ccccc23)CC2(CCCC(COC(=O)NCc3cccc(C(F)(F)F)c3)O2)O1 (stereo partly specified)

1. -1.5 (inactive)
2. -1.18 (inactive)
3. -0.717 (inactive)
4. -0.456 (inactive)

Batch: z-score for all items listed.
1. CC(C)=NOC(C)CN1CCCc2nc(C)c(C)cc21 (stereo unspecified)
2. C=CC[C@@H]1C=CC(ON=C(C)C)[C@@H](CO)O1 (stereo partly specified)

-0.726 (inactive)
-1.16 (inactive)
